- System tested: somatostatin receptor SSTR1 (Human, UniProt P30872 1-391)
- Sequence (P30872 whole entry): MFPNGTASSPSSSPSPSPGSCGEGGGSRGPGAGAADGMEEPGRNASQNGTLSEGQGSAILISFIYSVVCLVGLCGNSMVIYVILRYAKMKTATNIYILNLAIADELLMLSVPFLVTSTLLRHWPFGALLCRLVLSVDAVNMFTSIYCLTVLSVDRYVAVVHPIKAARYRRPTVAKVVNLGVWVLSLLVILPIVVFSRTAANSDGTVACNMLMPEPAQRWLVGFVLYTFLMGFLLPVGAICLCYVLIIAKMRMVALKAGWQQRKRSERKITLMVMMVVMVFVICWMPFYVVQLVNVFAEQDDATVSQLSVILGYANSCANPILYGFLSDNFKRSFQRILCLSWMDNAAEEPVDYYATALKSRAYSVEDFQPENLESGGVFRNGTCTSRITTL
- Experiment: competitive radioligand binding
pKi: −log10 of the molar value. Positions of bridges follow the written chain, without caps; N, C: chain ends. No end group written: not given here. disialo = disialo sugar chain

{"Binder": "SANSNPAMAPRERKAGCKNFFWKTC(disialo)TSC (disulfide 17-28) [F25C(disialo)-SRIF28]", "pKi": "< 6.08"}
